Data provenance is PubChem BioAssay AID1963848.

System: 379773-124-R-J2-PDC spheroid viability;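 further: spheroids exposed to drugs for seven days before readout; percent viability relative to DMSO vehicle control taken as 100%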
Assay: Anticancer human tumor 379773-124-R-J2-PDC patient-derived endometrial carcinoma cell line growth inhibition [POLQ]
Conditions: second compound 10 µM; first compound 1 µM; stronger effect = lower value; spheroids with HUVEC and MSC
Description: Multicellular complex tumor spheroid response to Polymerase (POL) inhibitors (novobiocin, ART-558, RP6685) in combination with a variety of drugs and investigational agents in selected tumor cell lines The POL inhibitors (novobiocin, ART-558, and RP6685) were evaluated both individually and in combination with standard of care and investigational anticancer small molecules within a complex spheroid model of solid tumors. . […]
Classification by viability, T/C follows these ranges: bin 0 (below 6%), bin 1 (6% to below 70%), bin 2 (70% or more)

Look over these answered cases.
# COMPOUND, TARGET, CLASSIFICATION
rows = [
    ("CCc1c2c(nc3ccc(O)cc13)-c1cc3c(c(=O)n1C2)COC(=O)[C@]3(O)CC + Cc1cccc(N(C)C(=O)C2C(O)CCN2c2nc(C)cc(C(F)(F)F)c2C#N)c1", "379773-124-R-J2-PDC spheroid viability", "bin 0"),
    ("CC1COCCN1c1cc(C2(O)CC3CCC(C2)O3)c2cnn(-c3ccn[nH]3)c2n1 (stereo unspecified) + Cc1cccc(N(C)C(=O)C2C(O)CCN2c2nc(C)cc(C(F)(F)F)c2C#N)c1", "379773-124-R-J2-PDC spheroid viability", "bin 1"),
]

Q: Tag the class for CC1COCCN1c1cc(C2(S(C)(=N)=O)CC2)nc(-c2ccnc3[nH]ccc23)n1 (stereo unspecified) + Cc1cccc(N(C)C(=O)C2C(O)CCN2c2nc(C)cc(C(F)(F)F)c2C#N)c1
A: bin 1

Q: Tag the class for O=C(c1cc(Cc2n[nH]c(=O)c3ccccc23)ccc1F)N1CCN(C(=O)C2CC2)CC1 + COC1C(OC(N)=O)C(O)C(Oc2ccc3c(O)c(NC(=O)c4ccc(O)c(CC=C(C)C)c4)c(=O)oc3c2C)OC1(C)C
A: bin 2

Q: Tag the class for COc1cc2cc(C(=O)CCC(=O)O)sc2cc1OC + Nc1ccc(C#CCN(C(=O)Cc2ncc(C(F)(F)F)cc2C(F)(F)F)c2ccc(F)cc2)nn1
A: bin 2

Q: Tag the class for CCc1cc2c(N3CCc4c(cc(Cn5ccnc5)cc4-c4cn(C)nc4C(F)(F)F)C3=O)ccnc2c(OC)n1 + Cc1cccc(N(C)C(=O)C2C(O)CCN2c2nc(C)cc(C(F)(F)F)c2C#N)c1
A: bin 1

Q: Tag the class for COc1cccc2c1C(=O)c1c(O)c3c(c(O)c1C2=O)CC(O)(C(=O)CO)CC3OC1CC(N)C(O)C(C)O1 (stereo unspecified) + COC1C(OC(N)=O)C(O)C(Oc2ccc3c(O)c(NC(=O)c4ccc(O)c(CC=C(C)C)c4)c(=O)oc3c2C)OC1(C)C
A: bin 0
